Recorded values, source ChEMBL document CHEMBL3433997.

Please respond with reported inhibition for every item in the list.
system.under.test: Glucose transporter (Leishmania mexicana)
protocol.summary: ST_JUDE_LEISH: Cytotoxicity at 2uM final concentration against transgenic Leishmania Mexicana promastigotes LmGT2 that are glucose transport deficient and complemented with the L. Mexicana glucose transporter 2. Activity is measured by DNA content using SYBR green in vitro
Format: functional
The reply should be a number in %, with the unit left off.

For record CCCCc1ccc(-c2ccc3[nH]c(C)c(Br)c(=O)c3c2)cc1 the listed inhibition is 2.44

For record Cc1cccn2c(=O)c3cc(C(=O)NC(C)c4ccccc4)c(=N)n(CCN4CCOCC4)c3nc12 (centres undefined) the listed inhibition is -1.52

For record O=C(C1CCCCC1)N1CCOC(CCN2CCC(c3ccccc3)CC2)(c2ccc(Cl)c(Cl)c2)C1 (centres undefined) the listed inhibition is 13.5

For record CN(C)c1ccc(-c2ccc(C(=O)NC3CCN(Cc4cccc(C(F)(F)F)c4)CC3)s2)cc1 the listed inhibition is 3.55

For record Cc1cccc(-c2ccc(NC(=O)Nc3ccc4nccc(N5CCN(C)CC5)c4c3)cc2C)n1 the listed inhibition is 3.13

For record O=C(Nc1ccccc1)c1nn(CCCN2CCC(N3CCCC3)CC2)cc1-c1ccc(Cl)c(Cl)c1 the listed inhibition is 0.89

For record O=C(Nc1ccc(-c2cccc(-c3nc4cc(C(F)(F)F)ccc4[nH]3)c2)cc1)Nc1ccc(F)c(F)c1F the listed inhibition is -1.97

For record CS(=O)(=O)NCCCNCc1ccc(-c2ccc(-c3nc4cc(C(F)(F)F)ccc4[nH]3)cc2)cc1 the listed inhibition is 1.11

For record COc1cc2s/c(=N\C(=O)c3cccc([N+](=O)[O-])c3)n(C)c2cc1OC the listed inhibition is 6.9

---

system.under.test: Solute carrier family 2, facilitated glucose transporter member 1 (Homo sapiens) (UniProt P11166)
Sequence (P11166 whole entry): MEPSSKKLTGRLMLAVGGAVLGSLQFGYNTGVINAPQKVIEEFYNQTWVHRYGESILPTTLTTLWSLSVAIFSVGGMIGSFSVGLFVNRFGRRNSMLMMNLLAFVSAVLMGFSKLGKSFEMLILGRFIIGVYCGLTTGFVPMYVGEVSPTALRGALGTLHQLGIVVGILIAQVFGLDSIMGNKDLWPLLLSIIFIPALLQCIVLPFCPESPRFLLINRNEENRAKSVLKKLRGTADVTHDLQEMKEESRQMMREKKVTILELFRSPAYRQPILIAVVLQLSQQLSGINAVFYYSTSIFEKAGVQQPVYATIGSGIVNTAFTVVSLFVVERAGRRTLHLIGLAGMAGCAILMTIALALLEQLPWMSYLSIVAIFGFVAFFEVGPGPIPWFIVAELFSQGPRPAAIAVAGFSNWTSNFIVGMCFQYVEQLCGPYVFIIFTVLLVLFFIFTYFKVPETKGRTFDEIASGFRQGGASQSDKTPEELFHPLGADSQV
protocol.summary: ST_JUDE_LEISH: Cytotoxicity at 2uM final concentration against transgenic Leishmania Mexicana promastigotes LmGLUT1 that are glucose transport deficient and complemented with the human glucose transporter GLUT1. Activity is measured by DNA content using SYBR green in vitro
Assay type: functional
Please respond with reported inhibition for every item in the list.
Report the figure along with its unit, number first.

For record O=C(N[C@H]1CCN(Cc2ccc(OCCN3CCCC3)c(Cl)c2)C1)c1ccc(Cl)c(Cl)c1 the listed inhibition is 8.03%

For record COc1cc(-n2cnc3cc(-c4ccc([N+](=O)[O-])cc4)sc3c2=O)ccc1OCCN1CCCC1 the listed inhibition is 19.5%

For record COc1ccc2ccc(F)c(CC(=O)N3CCOC(CNCc4cccc(-c5ccc(F)cc5)n4)C3)c2n1 (stereo not drawn) the listed inhibition is -1.79%

For record CCN(CC)CCN(Cc1ccc(-c2ccc(C(F)(F)F)cc2)cc1)C(=O)Cn1c(CCC2CCCCC2)nc(=O)c2ccccc21 the listed inhibition is 0.48%

For record COc1ccc2nccc([C@@H](O)CN3CCC(NC(=O)c4ccc(Cl)c([N+](=O)[O-])c4)CC3)c2c1 the listed inhibition is 13.3%

For record NC(=O)c1cccc(C(=O)Nc2cccc(-c3cccc(-c4nc5cc(F)ccc5[nH]4)c3)c2)c1 the listed inhibition is -0.39%

For record CC(C)CNCc1cccc(-c2cccc(CN(CCCN3CCN(C)CC3)C(=O)/C=C/c3ccccc3)c2)c1 the listed inhibition is -1.06%

For record CCNc1cc(C(=O)N[C@@H](Cc2cc(F)cc(F)c2)[C@H](O)CNCc2cccc(C(F)(F)F)c2)cc(N2CCCCS2(=O)=O)c1 the listed inhibition is -0.07%

For record COc1cc(C)ccc1S(=O)(=O)N1CCCCC(c2ccc(C(F)(F)F)cc2)=N1 the listed inhibition is 10.8%

For record CN1CCN(CCCNc2ncc3c(-c4ccc(NC(=O)Nc5cc(C(F)(F)F)ccc5F)c(F)c4)nn(C)c3n2)CC1 the listed inhibition is -0.98%

For record Nc1cc(-c2cccc(Cl)c2)nn1-c1ccnc2cc(Cl)ccc12 the listed inhibition is -0.77%

For record NCc1cccc(-c2ccccc2CNC2CCN(Cc3ccccc3)CC2)c1 the listed inhibition is 6%

For record O=C(NC1CCN(Cc2ccccc2)CC1)c1cc(-c2ccncc2)nc2ccc(Cl)cc12 the listed inhibition is 4.96%

For record Cc1ccc(-c2nc3cc(C(=O)NC4CCN(Cc5ccccc5)CC4)ccc3[nH]2)cc1 the listed inhibition is 6.09%

For record COc1ccc(-c2nc3c(N)nc(N)nc3nc2C(C)C)cc1 the listed inhibition is 15.6%

For record CN(C)CCNCc1ccc(-c2ccc(-c3nc4cc(F)ccc4[nH]3)cc2)cc1 the listed inhibition is 9.57%

For record O=C(NCCNc1ccnc(Nc2ccc(F)cc2)n1)Nc1ccc2c(c1)OCO2 the listed inhibition is 1.78%

For record Cc1cc(N[C@@H](Cc2ccccc2)C(=O)NCCOc2ccccc2)nc(NCc2ccccc2C)n1 the listed inhibition is 7.28%

For record CC(=O)Nc1nc(C(=O)Nc2ccc(-c3ccc(-c4nc5ccccc5[nH]4)cc3)cc2)cs1 the listed inhibition is 4.03%

For record COc1c(C2CCN(CCCCNC(=O)c3ccc(-c4ccc(C#N)cc4)cc3)CC2)cc(Cl)c2c1CCCC2 the listed inhibition is 1.68%

For record COc1cc(C(=O)NC2CCN(Cc3ccccc3)CC2)ccc1-c1nc2cc(Cl)c(Cl)cc2[nH]1 the listed inhibition is 0.11%

For record CCN(CCNc1nc(NCCc2cnc[nH]2)nc(N(CCC#N)Cc2ccccc2)n1)c1cccc(C)c1 the listed inhibition is 12.1%

For record COC(=O)c1cccc(CNCc2ccc(-c3ccc(-c4nc5cc(F)ccc5[nH]4)cc3)cc2)c1 the listed inhibition is 13%

For record COc1nc(NCC(C)C)nc(Oc2ccc(=O)n(Cc3ccccc3)n2)n1 the listed inhibition is 1.73%

For record COCCNCc1cccc(-c2ccccc2CN(C(=O)c2ccc3c(c2)OCO3)c2ccc(OC)cc2)c1 the listed inhibition is 4.69%

For record O=C(Nc1cccc(-c2nn3ccccc3c2-c2ccnc(Nc3cccc(N4CCCC4=O)c3)n2)c1)c1cc(F)ccc1F the listed inhibition is 2.51%

For record Cc1ccc(NC(=O)NC2CCN(CCCCCNC(=O)C3CC3c3ccc(Cl)c(Cl)c3)CC2)cc1 (stereo not drawn) the listed inhibition is -4.5%

For record c1ccc(CN2CCC(NCc3ccc(-c4ccc(CNCc5cccnc5)cn4)cc3)CC2)cc1 the listed inhibition is 3.27%

For record COc1ccc2c(c1)Nc1ccc(Cl)cc1C2N (stereo not drawn) the listed inhibition is 3.78%

For record CC(C)(CNC(=O)C1CCN(Cc2ccc(Cl)cc2)CC1)c1nc(-c2ccc(Cl)c(O)c2)c(-c2ccncc2)[nH]1 the listed inhibition is 6.62%

For record CC(C)c1sc(N2CCN(C)CC2)nc1C(=O)Nc1ccc(F)cc1C(F)(F)F the listed inhibition is 5.47%

For record CCCCCNc1nc(Nc2ccccc2C)nc2ccccc12 the listed inhibition is 29.1%

For record NC1=NC2(CCCCC2)N(Cc2ccc(Cl)c(Cl)c2)C(N)=N1 the listed inhibition is -1.03%

For record COCCNCc1cccc(-c2cc3nccc(Nc4ccc(Oc5ccccc5)cc4)c3cc2Cl)c1 the listed inhibition is -0.26%

For record O=c1cc(NCCCNCc2scc3c(Cl)cc(C(F)(F)F)nc23)[nH]c2ccccc12 the listed inhibition is 2.13%

For record CC(C)CNC(=O)c1cncc(-c2cccc(CNC3Cc4ccccc4C3)c2)c1 the listed inhibition is 10.7%

For record CN1CC[C@@H](Oc2cc(NC(=O)Nc3ccccc3Br)ccc2Cl)C1 the listed inhibition is 4.94%

For record O=C(Nc1cccc(CN2CCN(C(=O)c3cccs3)CC2)c1)c1cccs1 the listed inhibition is 2.53%
